- System: Escherichia coli TOP10
- Assay comment: shrunken log2 fold change of peptide-encoding DNA abundance (4.5 h post-induction vs induction); higher = less antimicrobial activity (less host growth inhibition)
- Details: time post-induction: 4.5 h; library: site-saturation at positions 5, 18, 19, 20
Measurement label: shrunken log2 fold change

Residue sequence	Readout value
RRIRPRPPRLPRPRPRPSTDPRP	-0.207
RRIRVRPPRLPRPRPRPNVYPRP	-0.787
RRIRRRPPRLPRPRPRPGMQPRP	0.245
RRIRTRPPRLPRPRPRPYYPPRP	-0.335
RRIRMRPPRLPRPRPRPATQPRP	1.14
RRIRGRPPRLPRPRPRPVSGPRP	0.731
RRIRSRPPRLPRPRPRPCAAPRP	0.312
RRIRTRPPRLPRPRPRPYVMPRP	-1.53
RRIRIRPPRLPRPRPRPDITPRP	-0.0982
RRIRSRPPRLPRPRPRPELFPRP	0.104
RRIRQRPPRLPRPRPRPPKCPRP	-0.37
RRIRCRPPRLPRPRPRPDYAPRP	-0.278
RRIRGRPPRLPRPRPRPLFVPRP	0.203
RRIRVRPPRLPRPRPRPLGAPRP	0.352
RRIRLRPPRLPRPRPRPPKCPRP	0.213

###

- System: Escherichia coli TOP10
- Assay comment: shrunken log2 fold change of peptide-encoding DNA abundance (4.5 h post-induction vs induction); higher = less antimicrobial activity (less host growth inhibition)
- Details: time post-induction: 4.5 h; library: site-saturation at positions 5, 18, 19, 20
Please assign a class to every record based on measured shrunken log2 fold change, with ranges bottom bin: < -0.03; middle bin: ≥ -0.03 and < 0.1; top bin: ≥ 0.1

Residue sequence	Assayed target	Assigned category
RRIRMRPPRLPRPRPRPGERPRP	Escherichia coli TOP10	top bin
RRIRARPPRLPRPRPRPVGHPRP	Escherichia coli TOP10	top bin
RRIRYRPPRLPRPRPRPGCEPRP	Escherichia coli TOP10	middle bin
RRIRMRPPRLPRPRPRPVGDPRP	Escherichia coli TOP10	top bin
RRIRSRPPRLPRPRPRPCAEPRP	Escherichia coli TOP10	middle bin
RRIRGRPPRLPRPRPRPMMPPRP	Escherichia coli TOP10	top bin
RRIRCRPPRLPRPRPRPYEVPRP	Escherichia coli TOP10	middle bin
RRIRSRPPRLPRPRPRPAWNPRP	Escherichia coli TOP10	top bin
RRIRRRPPRLPRPRPRPRDQPRP	Escherichia coli TOP10	top bin
RRIRTRPPRLPRPRPRPNKTPRP	Escherichia coli TOP10	middle bin
RRIRYRPPRLPRPRPRPQMGPRP	Escherichia coli TOP10	middle bin
RRIRARPPRLPRPRPRPNLKPRP	Escherichia coli TOP10	top bin
RRIRVRPPRLPRPRPRPLVEPRP	Escherichia coli TOP10	bottom bin
RRIRERPPRLPRPRPRPKLQPRP	Escherichia coli TOP10	middle bin
RRIRVRPPRLPRPRPRPIPGPRP	Escherichia coli TOP10	bottom bin
RRIRQRPPRLPRPRPRPVPSPRP	Escherichia coli TOP10	middle bin
RRIRIRPPRLPRPRPRPQYPPRP	Escherichia coli TOP10	bottom bin
RRIRLRPPRLPRPRPRPTIYPRP	Escherichia coli TOP10	bottom bin
RRIRNRPPRLPRPRPRPSQYPRP	Escherichia coli TOP10	bottom bin
RRIRERPPRLPRPRPRPQETPRP	Escherichia coli TOP10	middle bin
RRIRFRPPRLPRPRPRPYWPPRP	Escherichia coli TOP10	bottom bin
RRIRCRPPRLPRPRPRPWWSPRP	Escherichia coli TOP10	top bin
RRIRHRPPRLPRPRPRPSMGPRP	Escherichia coli TOP10	bottom bin
RRIRGRPPRLPRPRPRPTSSPRP	Escherichia coli TOP10	top bin
RRIRFRPPRLPRPRPRPNHNPRP	Escherichia coli TOP10	bottom bin
RRIRGRPPRLPRPRPRPCPQPRP	Escherichia coli TOP10	top bin
RRIRHRPPRLPRPRPRPPPCPRP	Escherichia coli TOP10	top bin
RRIRGRPPRLPRPRPRPMTNPRP	Escherichia coli TOP10	top bin
RRIRIRPPRLPRPRPRPYSDPRP	Escherichia coli TOP10	bottom bin
RRIRFRPPRLPRPRPRPKGGPRP	Escherichia coli TOP10	middle bin
RRIRNRPPRLPRPRPRPHKPPRP	Escherichia coli TOP10	bottom bin
RRIRKRPPRLPRPRPRPFMCPRP	Escherichia coli TOP10	middle bin

###

- Tested on: Escherichia coli TOP10;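 also: peptides expressed intracellularly from a pBAD plasmid library in pooled LB shake-flask culture, induced with 0.3% L-arabinose, DNA abundance read by NGS, three biological replicates, DESeq2 with apeglm shrinkage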
- Assay comment: shrunken log2 fold change of peptide-encoding DNA abundance (4.5 h post-induction vs induction); higher = less antimicrobial activity (less host growth inhibition)
- Details: time post-induction: 4.5 h; library: site-saturation at positions 5, 18, 19, 20
Measurement label: shrunken log2 fold change

Residue sequence	Measurement label	Readout value
RRIRKRPPRLPRPRPRPGDDPRP	shrunken log2 fold change	0.758
RRIRTRPPRLPRPRPRPLQPPRP	shrunken log2 fold change	0.161
RRIRYRPPRLPRPRPRPFNIPRP	shrunken log2 fold change	-0.973
RRIRTRPPRLPRPRPRPKCSPRP	shrunken log2 fold change	-0.0669
RRIRYRPPRLPRPRPRPSNLPRP	shrunken log2 fold change	-0.729
RRIRGRPPRLPRPRPRPNSFPRP	shrunken log2 fold change	-0.0356
RRIRARPPRLPRPRPRPFQLPRP	shrunken log2 fold change	-0.94
RRIRERPPRLPRPRPRPNSDPRP	shrunken log2 fold change	-0.142
RRIRQRPPRLPRPRPRPMVQPRP	shrunken log2 fold change	-0.00171
RRIRHRPPRLPRPRPRPAPPPRP	shrunken log2 fold change	0.854
RRIRHRPPRLPRPRPRPHGRPRP	shrunken log2 fold change	-0.219
RRIRERPPRLPRPRPRPFPWPRP	shrunken log2 fold change	-0.0723
RRIRTRPPRLPRPRPRPACYPRP	shrunken log2 fold change	-0.0845
RRIRGRPPRLPRPRPRPAAPPRP	shrunken log2 fold change	1.38
RRIRLRPPRLPRPRPRPRMKPRP	shrunken log2 fold change	-0.00259
RRIRNRPPRLPRPRPRPSIWPRP	shrunken log2 fold change	-0.474
RRIRYRPPRLPRPRPRPCPFPRP	shrunken log2 fold change	-0.0574
RRIRSRPPRLPRPRPRPFKDPRP	shrunken log2 fold change	-0.11
RRIRVRPPRLPRPRPRPQYFPRP	shrunken log2 fold change	-0.19
RRIRNRPPRLPRPRPRPNDIPRP	shrunken log2 fold change	-0.418
RRIRFRPPRLPRPRPRPDKMPRP	shrunken log2 fold change	0.0125
RRIRQRPPRLPRPRPRPYPKPRP	shrunken log2 fold change	0.00727
RRIRERPPRLPRPRPRPEIRPRP	shrunken log2 fold change	-0.163
RRIRNRPPRLPRPRPRPGTDPRP	shrunken log2 fold change	-0.0425
RRIRARPPRLPRPRPRPDTLPRP	shrunken log2 fold change	-0.0794
RRIRIRPPRLPRPRPRPMEAPRP	shrunken log2 fold change	-0.0793
RRIRGRPPRLPRPRPRPTVGPRP	shrunken log2 fold change	0.832
RRIRARPPRLPRPRPRPRSFPRP	shrunken log2 fold change	0.202
RRIRRRPPRLPRPRPRPALGPRP	shrunken log2 fold change	0.269
RRIRKRPPRLPRPRPRPNMCPRP	shrunken log2 fold change	0.0251
RRIRERPPRLPRPRPRPQSDPRP	shrunken log2 fold change	-0.134
RRIRSRPPRLPRPRPRPPHMPRP	shrunken log2 fold change	-0.0602
RRIRDRPPRLPRPRPRPKCMPRP	shrunken log2 fold change	-0.153
RRIRKRPPRLPRPRPRPCLGPRP	shrunken log2 fold change	0.0457
RRIRTRPPRLPRPRPRPWYKPRP	shrunken log2 fold change	-0.0134
RRIRFRPPRLPRPRPRPITFPRP	shrunken log2 fold change	-0.456
RRIRERPPRLPRPRPRPTEIPRP	shrunken log2 fold change	0.135
RRIRFRPPRLPRPRPRPVIVPRP	shrunken log2 fold change	-0.997
RRIRVRPPRLPRPRPRPRIYPRP	shrunken log2 fold change	-0.15
RRIRGRPPRLPRPRPRPWRQPRP	shrunken log2 fold change	0.0568
RRIRVRPPRLPRPRPRPKPWPRP	shrunken log2 fold change	0.376
RRIRNRPPRLPRPRPRPLGVPRP	shrunken log2 fold change	0.129
RRIRARPPRLPRPRPRPAICPRP	shrunken log2 fold change	0.252
RRIRQRPPRLPRPRPRPMRFPRP	shrunken log2 fold change	0.0202
RRIRKRPPRLPRPRPRPDQWPRP	shrunken log2 fold change	0.376
RRIRQRPPRLPRPRPRPCAKPRP	shrunken log2 fold change	0.0917
RRIRMRPPRLPRPRPRPRSFPRP	shrunken log2 fold change	0.307
RRIRDRPPRLPRPRPRPRAMPRP	shrunken log2 fold change	-0.0837
RRIRARPPRLPRPRPRPVQFPRP	shrunken log2 fold change	-0.0854
RRIRNRPPRLPRPRPRPAMIPRP	shrunken log2 fold change	-0.254
RRIRQRPPRLPRPRPRPIAAPRP	shrunken log2 fold change	0.269
RRIRIRPPRLPRPRPRPEGEPRP	shrunken log2 fold change	0.134
RRIRDRPPRLPRPRPRPQLFPRP	shrunken log2 fold change	-0.0901
RRIRHRPPRLPRPRPRPQNQPRP	shrunken log2 fold change	-0.563
RRIRKRPPRLPRPRPRPGQNPRP	shrunken log2 fold change	0.0264
RRIRMRPPRLPRPRPRPSYDPRP	shrunken log2 fold change	0.26
RRIRQRPPRLPRPRPRPVLVPRP	shrunken log2 fold change	0.328
RRIRHRPPRLPRPRPRPDTPPRP	shrunken log2 fold change	-0.0405
RRIRPRPPRLPRPRPRPCYTPRP	shrunken log2 fold change	-0.531
RRIRWRPPRLPRPRPRPAPPPRP	shrunken log2 fold change	0.579
RRIRSRPPRLPRPRPRPPIMPRP	shrunken log2 fold change	-0.0485
RRIRERPPRLPRPRPRPSSMPRP	shrunken log2 fold change	-0.284
RRIRTRPPRLPRPRPRPEPQPRP	shrunken log2 fold change	0.927

The measured values listed here are drawn from the supplement of paper PMC9112550.
